Attribution: PubChem BioAssay (NCI)

Give measured growth for each item. Keep answers brief.
- System: HOP-62 NSCLC
- experiment-summary: NCI-60 one-dose screen, 48 h (100 = growth as untreated, 0 = no growth, -100 = all killed)
- condition-parameters: 10 µM unless noted
The panel holds about 83,000 compounds, 20% with a hit somewhere; the sample as a whole holds those more often. Activity calls are given as the source filed them. How the source made its calls: active means growth percent below 10; inactive means the rest.

CN(C)c1ccc(N=Nc2ccc(Br)cn2)c(O)c1 18.5% (inactive)
O=C(CCl)Oc1ccc(-c2ccccc2)c(Br)c1 107% (inactive)
COc1ccc(-c2nc3ccc(-c4nc5ccc(N6CCN(c7ccccc7)CC6)cc5[nH]4)cc3[nH]2)cc1OC 27% (inactive)
C=C1C(=O)O[C@H]2[C@H]1CC/C(COC(=O)NCCc1ccc(OC)c(OC)c1)=C\CC[C@@]1(C)O[C@@H]21 92.7% (inactive)
Cc1ccc2c(c1)C(=O)/C(=C/c1cccc(OCC(=O)c3ccc(Cl)cc3)c1)CS2 105% (inactive)
CNc1ccc(-c2cc(=O)oc3ccc(Cl)cc23)cc1 26.2% (inactive)
C=C1C(=O)O[C@H]2[C@H]1CC/C(COC(=O)NCc1ccc(OC)c(OC)c1)=C\CC[C@@]1(C)O[C@@H]21 87.8% (inactive)
CCCCCCN(CCCCCC)C(=N)c1ccnc2ccccc12 100% (inactive)

Batch: growth for all items listed.
1. C#CCOc1ccc2ncnc(Nc3cccc(CNC(=O)CCl)c3)c2c1
2. O=[N+]([O-])c1cnc(N2CCN(CC3CC3)CC2)nc1N1CCN(CC2CC2)CC1

Result:
["13.1% [8.25 µM] (inactive)", "108% (inactive)"]

---

Give measured growth for each item. Keep answers brief.
- Test system: SW-620 colon
- experiment-summary: NCI-60 one-dose screen, 48 h (100 = growth as untreated, 0 = no growth, -100 = all killed)
- condition-parameters: 10 µM unless noted
About 83,000 compounds went through this panel and 20% of them were active in at least one assay; those are over-represented in the sample as a whole. Calls of active or inactive are those of the source. The calls were made as follows: active = growth percent below 10; inactive = the rest.

compound	growth
COc1ccc(-c2nc3cc(C(=O)Nc4cc(OC)c(OC)c(OC)c4)ccc3n2C2CCCCC2)cc1	92.5% (inactive)

Batch: growth for all items listed.
1. CN(C)c1ccc(N=Nc2ccc(Br)cn2)c(O)c1
2. CC1(C)CC[C@]2(C(=O)Nc3ccccn3)CC[C@]3(C)C(=CC[C@@H]4[C@@]5(C)C/C(=C/c6cccnc6)C(=O)C(C)(C)[C@@H]5CC[C@]43C)[C@H]2C1
3. COc1ccc(-c2nc3ccc(-c4nc5ccc(N6CCN(c7ccncc7)CC6)cc5[nH]4)cc3[nH]2)cc1OC
4. COc1ccc(NC2=C(Sc3nc(C)cc(C)n3)C(=O)N(Cc3ccccc3)C2=O)cc1Cl
5. O=C1c2cc3c(cc2-c2c1c1ccc(F)cc1c(=O)n2C[C@H](O)[C@@H](O)[C@H](O)CO)OCO3

Result:
1: 26.1% (inactive); 2: 33.9% (inactive); 3: 35.6% (inactive); 4: 88.7% [30 µM] (inactive); 5: 7.68% (active)

Batch: growth for all items listed.
1. COc1cc2nc(N3CCCC3)nc(NCc3ccccc3)c2cc1OC
2. O=S(=O)(Nc1ccc(NS(=O)(=O)c2ccccc2)c(Cl)c1)c1ccccc1
3. COc1cc(/C=C/C(=O)Nc2cccnc2Nc2ccc(F)cc2)cc(OC)c1OC
4. COc1cc(-c2nc3ccccc3[nH]2)ccc1OCc1nnc(-c2ccc(CC(C)C)cc2)o1
5. O=C1c2ccccc2C(=O)c2c(N=Nc3[nH]c(=S)[nH]c3O)cccc21
6. Cc1[nH]c(-c2cc(N)ccc2Cl)c2c1C(=O)CCCC2
7. CC/C=C\C[C@H](O)C/C=C1/C(=O)C=C[C@@]1(C)C/C=C\CCCC(=O)OC
8. O=C1CC(=NCC(=O)n2c(-c3ccccc3)nc3ccccc32)NN1

Result:
55.9% (inactive)
99.1% (inactive)
106% (inactive)
103% (inactive)
18% (inactive)
64.6% (inactive)
114% (inactive)
100% (inactive)
